- assayDetails: JC-1 mitochondrial signal, unstimulated adipocytes – cell-based, JC-1 fluorescence, 3T3-L1 adipocytes, 24 h, 100 nL compound, profiling panel (AID 1168); also: test concentration not given here
- runParameters: JC-1 mitochondrial fluorescence, higher = more signal, called active from +8 up or from −8 down
Label 1 (yes) when z-score >= 0.8; otherwise 0 (no).

molecule="CCCCCC1=C2CNC(CC(C)C)(C(=O)OC)C=C2C(C)C1=O (configuration not stated)" group="0 (no)"
molecule=COC(=O)[C@@]1(Cc2ccccc2)N=C(c2ccc(OCCCO)cc2)O[C@H]1c1ccccc1CN=[N+]=[N-] group="1 (yes)"
molecule=COc1ccc([Si](C)(C)[C@H]2[C@H](CCO)O[C@@]3(C(=O)N(Cc4ccc(NC(=O)[C@H](C)O)cc4)c4ccccc43)[C@@H]2C)cc1 group="1 (yes)"
molecule=Cc1ccc(S[C@]2(C(=O)NCCCN(C)C)CC(=O)N(Cc3ccccc3C(F)(F)F)[C@@H]2c2ccc(CO)cc2I)cc1 group="0 (no)"
molecule=Cc1ccc(N2C(=O)c3ccccc3[C@](C)(C(=O)NCCCN(C)C)[C@@H]2c2ccc(CO)cc2)nc1 group="0 (no)"
molecule=[N-]=[N+]=Nc1ccccc1C[C@@]1(C(=O)NCc2ccccc2)N=C(c2ccc(OCCCO)cc2)O[C@@H]1c1ccccc1N=[N+]=[N-] group="0 (no)"
molecule=C=CCOC(=O)[C@H]1[C@@H]2C(=O)O[C@@H](c3ccccc3)[C@@H](c3ccccc3)N2[C@@H](c2ccc(OCCOC(=O)[C@@H]3C[C@@H]4C(=O)N[C@@H](CCCCNC(C)=O)C(=O)N4[C@@H]3c3cccc(OCCO)c3)cc2)[C@]12C(=O)Nc1ccccc12 group="1 (yes)"
